- tested_on: human CYP11B1 (Homo sapiens)
- Construct: expressed in transfected cells; host or cells: V79 MZh11B1 (Chinese hamster lung fibroblasts)
- measurement_protocol: V79 MZh 11B1 cells inhibition test
- Assay type: cell-based
- condition_parameters: hamster fibroblasts which express human CYP11B1; deoxycorticosterone substrate 100 nM; read-out: IC50 V79 11B1 hCYP11B1
pIC50: −log10 of the molar value. Counter-ions that a name gives are not always drawn.
Quick rule for you: pIC50 at 6 or higher means TRUE, lower means FALSE.

compound	tested_on	class
Brc1ccc2c(c1)CC/C2=C\c1cccnc1 [Compound 9a, Hydrochloride]	human CYP11B1 (Homo sapiens)	FALSE
Clc1ccc2c(c1)CC/C2=C/c1cccnc1 [Compound 7b, Hydrochloride]	human CYP11B1 (Homo sapiens)	TRUE
CCOc1ccc2c(c1)CC/C2=C\c1cccnc1 [Compound 19a, Hydrochloride]	human CYP11B1 (Homo sapiens)	FALSE

====

- tested_on: human CYP11B2 (Homo sapiens)
- measurement_protocol: Screening test in transgenic fission yeast (S. pombe PE1) expressing human CYP11B2
- Format: cell-based
- Design: expressed in transfected cells
- condition_parameters: S. pombe cells which express human CYP11B2; deoxycorticosterone substrate 100 nM; inhibitor 500 nM; read-out: % Inhibition human hCYP11B2
Structures can show the parent of a compound that is named as a salt.

compound	tested_on	inhibition at 0.5 µM / %
N#Cc1ccc2c(c1)CCC/C2=C/c1cnc[nH]1.O=C(O)C(=O)O [Compound 44b, oxalate]	human CYP11B2 (Homo sapiens)	54
Fc1ccc2c(c1)CC/C2=C\c1cncnc1 [Compound 28a, Hydrochloride]	human CYP11B2 (Homo sapiens)	72
C(=C1/CCCc2ccccc21)/c1cccnc1.Cl [Compound 3a, Hydrochloride]	human CYP11B2 (Homo sapiens)	70
Fc1ccc2c(c1)CC/C2=C\c1cnc[nH]1 [Compound 47a]	human CYP11B2 (Homo sapiens)	59
COc1ccc2c(c1)CCC/C2=C/c1cccnc1.Cl [Compound 13b, Hydrochloride]	human CYP11B2 (Homo sapiens)	53

====

Examples of compounds with documented IC50 follow.
- tested_on: human placental CYP19 (Homo sapiens, UniProt P11511)
- Construct: The enzyme was obtained from the microsome fraction of fresh human placenta; from tissue; host or cells: human placenta, microsomal fraction
- Sequence (P11511 whole entry): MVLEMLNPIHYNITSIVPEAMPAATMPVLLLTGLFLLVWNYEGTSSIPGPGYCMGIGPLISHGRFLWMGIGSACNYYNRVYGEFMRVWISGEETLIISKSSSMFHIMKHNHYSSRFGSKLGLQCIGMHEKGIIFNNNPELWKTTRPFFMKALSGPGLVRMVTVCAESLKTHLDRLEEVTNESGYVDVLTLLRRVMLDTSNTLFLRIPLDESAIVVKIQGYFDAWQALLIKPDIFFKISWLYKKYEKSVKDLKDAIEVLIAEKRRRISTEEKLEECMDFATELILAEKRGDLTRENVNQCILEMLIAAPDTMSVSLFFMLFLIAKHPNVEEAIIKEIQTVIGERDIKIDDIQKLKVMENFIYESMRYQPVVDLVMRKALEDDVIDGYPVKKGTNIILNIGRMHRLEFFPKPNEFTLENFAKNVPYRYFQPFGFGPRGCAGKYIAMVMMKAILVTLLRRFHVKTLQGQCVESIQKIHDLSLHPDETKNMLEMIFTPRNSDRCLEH
- measurement_protocol: IC50 of CYP19 (human placental microsomes)
- Type: biochemical
- condition_parameters: human placental CYP19; testosterone substrate 2.5 μM
Structures can show the parent of a compound that is named as a salt.
measure_name: IC50 (µM)

compound	scale_unit	observed_value
Clc1ccc2c(c1)CC/C2=C/c1cccnc1 [Compound 7b, Hydrochloride]	µM	4.05
C(=C1\CCCc2ccccc21)/c1cccnc1.Cl [Compound 3b, Hydrochloride]	µM	3.79
Fc1ccc2c(c1)CC/C2=C\c1cccnc1 [Compound 5a, Hydrochloride]	µM	2.54
Cc1cccc2c1CC/C2=C\c1cccnc1 [Compound 23a, Hydrochloride]	µM	4.72
Fc1ccc2c(c1)CC/C2=C/c1ccncc1 [Compound 6b, Hydrochloride]	µM	0.8
C(=C1/CCCc2ccccc21)/c1cccnc1.Cl [Compound 3a, Hydrochloride]	µM	6.58
Fc1ccc2c(c1)CC/C2=C/c1cccnc1 [Compound 5b, Hydrochloride]	µM	2.49
CCOc1ccc2c(c1)CC/C2=C/c1cccnc1 [Compound 19b, Hydrochloride]	µM	7.68
Clc1ccc2c(c1)CC/C2=C\c1cccnc1 [Compound 7a, Hydrochloride]	µM	4.26
COc1cccc2c1/C(=C/c1cccnc1)CC2 [Compound 26a, Hydrochloride]	µM	9.74
Brc1ccc2c(c1)CC/C2=C/c1cccnc1 [Compound 9b, Hydrochloride]	µM	7.37
Clc1cccc2c1CC/C2=C/c1cccnc1 [Compound 25b, Hydrochloride]	µM	0.23
Fc1ccc2c(c1)CC/C2=C/c1cccc2cnccc12 [Compound 30b, Hydrochloride]	µM	1.94
COc1ccc2c(c1)CC/C2=C\c1cccnc1 [Compound 11a, Hydrochloride]	µM	4.31
COc1ccc2c(c1)CCC/C2=C\c1cccnc1 [Compound 13a, Hydrochloride]	µM	1.13
Fc1ccc2c(c1)CC/C2=C\c1cncnc1 [Compound 28a, Hydrochloride]	µM	7.45
C(=C1/CCc2ccccc21)/c1cccnc1 [Compound 1a, Hydrochloride]	µM	2.04
COc1ccc2c(c1)CC/C2=C/c1cccnc1 [Compound 11b, Hydrochloride]	µM	5.57
Fc1ccc2c(c1)CC/C2=C\c1cccc2cnccc12 [Compound 30a, Hydrochloride]	µM	0.72
Cl.Clc1ccc2c(c1)CC/C2=C\c1cnc[nH]1 [Compound 48a]	µM	0.33
C(=C1/CCCc2ccccc21)/c1cnc[nH]1 [Compound 41a]	µM	0.226
Clc1cccc2c1CC/C2=C\c1cccnc1 [Compound 25a, Hydrochloride]	µM	0.13

====

Examples of molecules with documented pIC50 follow.
- tested_on: human CYP11B2 (Homo sapiens)
- Sequence (P19099 25-503): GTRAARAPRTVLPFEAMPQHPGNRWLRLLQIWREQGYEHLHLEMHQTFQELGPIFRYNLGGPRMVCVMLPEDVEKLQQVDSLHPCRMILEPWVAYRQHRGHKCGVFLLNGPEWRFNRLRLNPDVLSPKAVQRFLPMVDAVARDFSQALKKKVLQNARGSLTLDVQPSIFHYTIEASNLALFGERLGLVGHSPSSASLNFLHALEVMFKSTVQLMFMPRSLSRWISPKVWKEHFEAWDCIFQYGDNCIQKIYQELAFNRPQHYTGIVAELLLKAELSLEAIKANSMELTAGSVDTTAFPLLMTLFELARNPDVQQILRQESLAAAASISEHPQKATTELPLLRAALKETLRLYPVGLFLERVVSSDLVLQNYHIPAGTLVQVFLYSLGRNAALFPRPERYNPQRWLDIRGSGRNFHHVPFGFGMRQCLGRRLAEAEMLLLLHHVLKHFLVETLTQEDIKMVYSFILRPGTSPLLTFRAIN
- measurement_protocol: V79 MZh 11B2 cells inhibition test
- condition_parameters: hamster fibroblasts which express human CYP11B2; deoxycorticosterone substrate 100 nM; read-out: IC50 V79 11B2 hCYP11B2
pIC50: −log10 of the molar value. Counter-ions that a name gives are not always drawn.
measure_name: pIC50

molecule	observed_value
COc1ccc2c(c1)CCC/C2=C\c1cccnc1 [Compound 13a, Hydrochloride]	7.25
C(=C1/CCc2ccccc21)/c1cccnc1 [Compound 1a, Hydrochloride]	7.97
Brc1ccc2c(c1)CC/C2=C/c1cccnc1 [Compound 9b, Hydrochloride]	6.77
Clc1cccc2c1CC/C2=C/c1cccnc1 [Compound 25b, Hydrochloride]	7.51
C(=C1\CCCc2ccccc21)/c1cccnc1.Cl [Compound 3b, Hydrochloride]	6.85
Fc1ccc2c(c1)CC/C2=C\c1cncnc1 [Compound 28a, Hydrochloride]	7.56
Fc1ccc2c(c1)CC/C2=C\c1ccncc1 [Compound 6a, Hydrochloride]	5.96

====

Where a name gives a salt, the structure may show the parent alone.
measure_name: melting point (°C)

compound	scale_unit	observed_value
C(=C1/CCc2ccccc21)/c1ccncc1 (as salt: oxalate) [Compound 2a]	°C	167
COc1ccc2c(c1)CCC/C2=C/c1cccnc1.Cl [Compound 13b]	°C	151
N#Cc1ccc2c(c1)CC/C2=C/c1cnc[nH]1.O=C(O)C(=O)O [Compound 45b]	°C	207
c1cncc(-c2ccc3cccc4c3c2CC4)c1 (as salt: salt) [Compound 50]	°C	208

====

- tested_on: human CYP11B1 (Homo sapiens)
- Construct: expressed in transfected cells; host or cells: V79 MZh11B1 (Chinese hamster lung fibroblasts)
- Sequence (P15538 25-503): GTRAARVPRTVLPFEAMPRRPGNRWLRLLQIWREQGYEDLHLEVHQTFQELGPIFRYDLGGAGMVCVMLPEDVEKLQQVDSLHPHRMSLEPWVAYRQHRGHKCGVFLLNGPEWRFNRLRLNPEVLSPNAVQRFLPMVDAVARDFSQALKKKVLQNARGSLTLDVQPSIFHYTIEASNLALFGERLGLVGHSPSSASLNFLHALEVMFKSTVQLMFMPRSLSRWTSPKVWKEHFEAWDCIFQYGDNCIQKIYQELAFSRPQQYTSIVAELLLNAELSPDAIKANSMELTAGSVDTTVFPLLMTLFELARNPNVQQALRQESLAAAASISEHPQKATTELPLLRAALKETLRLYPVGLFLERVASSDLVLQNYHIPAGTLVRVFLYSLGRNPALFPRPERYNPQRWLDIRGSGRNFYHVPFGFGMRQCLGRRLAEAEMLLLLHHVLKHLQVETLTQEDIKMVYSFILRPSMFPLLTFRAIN
- measurement_protocol: V79 MZh 11B1 cells inhibition test
- Format: cell-based
- condition_parameters: hamster fibroblasts which express human CYP11B1; deoxycorticosterone substrate 100 nM; read-out: IC50 V79 11B1 hCYP11B1
Structures can show the parent of a compound that is named as a salt.
Quick rule for you: IC50 under 800 nM gets condition met, anything else gets condition not met.

molecule	class
COc1cccc2c1/C(=C/c1cccnc1)CC2 [Compound 26a, Hydrochloride]	condition not met
Clc1ccc2c(c1)CC/C2=C\c1cccnc1 [Compound 7a, Hydrochloride]	condition not met
Clc1cccc2c1CC/C2=C/c1cccnc1 [Compound 25b, Hydrochloride]	condition met
C(=C1/CCc2ccccc21)/c1cccnc1 [Compound 1a, Hydrochloride]	condition not met
Cc1cccc2c1CC/C2=C\c1cccnc1 [Compound 23a, Hydrochloride]	condition met
